Each entry below carries its reported EC50, T = 4 weeks at pH 8, 40° C. (forced deamidation).
Target: T1, human IL-17A (construct not specified) (human, UniProt Q16552 24-155, limits assumed)
T1 sequence: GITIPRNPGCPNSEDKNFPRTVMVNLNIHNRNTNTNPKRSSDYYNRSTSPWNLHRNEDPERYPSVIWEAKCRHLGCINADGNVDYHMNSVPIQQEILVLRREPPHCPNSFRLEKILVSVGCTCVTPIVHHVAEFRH
Test: cell-based or functional assay
Answer with the number, then the unit.

# binder, test value
records = [
    ("XAB4 (antibody, human IgG1, kappa, V domains shown) VH: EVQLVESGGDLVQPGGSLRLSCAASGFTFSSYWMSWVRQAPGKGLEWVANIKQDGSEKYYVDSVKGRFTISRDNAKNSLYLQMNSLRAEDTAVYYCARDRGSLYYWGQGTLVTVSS VL: AIQLTQSPSSLSASVGDRVTITCRPSQGINWELAWYQQKPGKAPKLLIYDASSLEQGVPSRFSGSGSGTDFTLTISSLQPEDFATYYCQQFNSYPLTFGGGTKVEIKR", "47 ng/ml"),
    ("XAB2 (antibody, human IgG1, kappa, V domains shown, full IgG) VH: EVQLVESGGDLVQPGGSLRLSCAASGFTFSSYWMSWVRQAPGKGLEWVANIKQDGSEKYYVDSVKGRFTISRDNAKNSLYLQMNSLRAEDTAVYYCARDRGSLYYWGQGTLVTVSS VL: AIQLTQSPSSLSASVGDRVTITCRPSQVIISALAWYQQKPGKAPKLLIYDASSLEQGVPSRFSGSVSGTDFTLTISSLQPEDFATYYCQQFDSYPLTFGGGTKVEIKR", "47 ng/ml"),
    ("XAB5 (antibody, human IgG1, kappa, V domains shown) VH: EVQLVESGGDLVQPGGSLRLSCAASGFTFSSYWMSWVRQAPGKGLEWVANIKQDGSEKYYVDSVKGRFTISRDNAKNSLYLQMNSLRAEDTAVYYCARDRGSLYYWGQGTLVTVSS VL: AIQLTQSPSSLSASVGDRVTITCRPSQGINWELAWYQQKPGKAPKLLIYDASSLENGVPSRFSGSGSGTDFTLTISSLQPEDFATYYCQQFNSYPLTFGGGTKVEIKR", "61 ng/ml"),
]

Query block: Which EC50, T = 4 weeks at pH 8, 40° C. (forced deamidation) is reported for this binder? XAB3 (antibody, human IgG1, kappa, V domains shown) VH: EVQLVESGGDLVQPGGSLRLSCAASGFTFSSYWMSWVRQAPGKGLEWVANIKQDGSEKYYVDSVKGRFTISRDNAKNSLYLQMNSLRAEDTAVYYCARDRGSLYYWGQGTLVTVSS VL: AIQLTQSPSSLSASVGDRVTITCRPSQGIYWELAWYQQKPGKAPKLLIYDASSLEQGVPSRFSGSGSGTDFTLTISSLQPEDFATYYCQQFNSYPLTFGGGTKVEIKR
Result block: 40 ng/ml
